- assay.system: Coagulation factor XII (Homo sapiens)
- protocol.description: human FXIIa protease inhibitors, primary screen, biochemical, single well (AID 701);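 also: 0% = enzyme with vehicle only and 100% = no enzyme blank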
- condition.set: purified human FXIIa, AMC substrate fluorescence, 2 h; at 10 µM; hits give high values
Hit rate of the full screen: of about 33,000 compounds, about 70 (0.2%) were called active. A selection follows.
measured.property: inhibition (%)

>>> df
                                   compound  measured_property  unit  value_reported
0  O=C(CSCc1c(F)cccc1Cl)NCC1CCCO1 (stereo not drawn)         inhibition     %            7.29
1       Cn1nnnc1SCC(=O)Nc1ccccc1C(=O)NC1CC1         inhibition     %           -1.23
2               COC(=O)CSc1nnc(-c2cccnc2)o1         inhibition     %            4.99
